Origin of values: paper PMC9860126

# Tested System: HpNikR K64A (Helicobacter pylori G27, UniProt A1YSQ9 1-148, K64A)
# Protocol Summary: fluorescence anisotropy; Ni(II)-bound; FA: 5 nM DNA, 20 mM Tris pH 7.6, 100 mM NaCl, 3 mM MgSO4, temperature not stated (Ni loading 1.2 eq NiSO4 per monomer at RT). EMSA: 20 mM Tris pH 7.5, 100 mM KCl, 3 mM MgCl2, 0.1% IGEPAL, 5% glycerol, 0.1 mg/ml herring sperm DNA, RT; gel with 800 uM NiSO4 at 4 C
# Test Context: protein: recombinant; tags: none stated; chain copies: 4; label: fluorescein on internal thymine (T14 of strand 1); blunt
Measured Quantity: Kd
Give your result as the value with the unit written after it.

Return reported Kd. Input binder: ureA promoter 32 bp (FA) (dsDNA) DNA 1: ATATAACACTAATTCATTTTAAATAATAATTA DNA 2: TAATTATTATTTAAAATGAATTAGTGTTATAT
22 nM
